# System: LXF-289
# test protocol: relative viability (nuclei count vs DMSO), 5 days (fraction); higher = more cells survive
# run parameters: first compound 0.01 µM
assay metric: relative viability
Respond with the number and no other words.

Here is how some compounds turned out for relative viability.
- compound: "NC(=O)Nc1cc(-c2cccc(F)c2)sc1C(=O)N[C@H]1CCCNC1 [AZD7762] + O=C(CCCCCCC(=O)Nc1ccccc1)NO [Vorinostat] (partner 1 µM)"
  relative viability: 0.67
- compound: "NC(=O)Nc1cc(-c2cccc(F)c2)sc1C(=O)N[C@H]1CCCNC1 [AZD7762] + Nc1ncn([C@H]2C[C@H](O)[C@@H](CO)O2)c(=O)n1 [Decitabine] (partner 2 µM)"
  relative viability: 0.322

Provide only the value of recorded relative viability for NC(=O)Nc1cc(-c2cccc(F)c2)sc1C(=O)N[C@H]1CCCNC1 [AZD7762] + N=C(N)NC(=N)NCCc1ccccc1 [Phenformin] (partner 250 µM)
0.49

Provide only the value of recorded relative viability for NC(=O)Nc1cc(-c2cccc(F)c2)sc1C(=O)N[C@H]1CCCNC1 [AZD7762] + CS(=O)(=O)N1CCN(Cc2cc3nc(-c4cccc5[nH]ncc45)nc(N4CCOCC4)c3s2)CC1 [Pictilisib] (partner 1 µM)
0.754

Provide only the value of recorded relative viability for NC(=O)Nc1cc(-c2cccc(F)c2)sc1C(=O)N[C@H]1CCCNC1 [AZD7762] + Cc1nc(Nc2ncc(C(=O)Nc3c(C)cccc3Cl)s2)cc(N2CCN(CCO)CC2)n1 [Dasatinib] (partner 0.075 µM)
0.225

Provide only the value of recorded relative viability for NC(=O)Nc1cc(-c2cccc(F)c2)sc1C(=O)N[C@H]1CCCNC1 [AZD7762] + COc1cc2c(Oc3ccc(NC(=O)C4(C(=O)Nc5ccc(F)cc5)CC4)cc3F)ccnc2cc1OCCCN1CCOCC1 [Foretinib] (partner 0.25 µM)
0.991

* * *

# Test system: NCI-H596
# test protocol: relative viability (nuclei count vs DMSO), 5 days (fraction); higher = more cells survive
# run parameters: first compound 2.53 µM
// classify: if (relative viability < 0.5) True else False

A selection of reference data follows.
- molecule: "Oc1nc(-c2ccc(C(F)(F)F)cc2)nc2c1CSCC2 [XAV939] + CC(=O)Nc1cccc(-n2c(=O)n(C3CC3)c(=O)c3c(Nc4ccc(I)cc4F)n(C)c(=O)c(C)c32)c1 [Trametinib] (partner 0.02 µM)"
  class label: "False"
- molecule: "C=C1C(=O)O[C@@H](CCCCCCCC)[C@@H]1C(=O)O [C-75] + Cc1nc(NC(=O)N2CCC[C@H]2C(N)=O)sc1-c1ccnc(C(C)(C)C(F)(F)F)c1 [Alpelisib] (partner 2 µM)"
  class label: "False"
- molecule: "C=C1C(=O)O[C@@H](CCCCCCCC)[C@@H]1C(=O)O [C-75] + CS(=O)(=O)N1CCN(Cc2cc3nc(-c4cccc5[nH]ncc45)nc(N4CCOCC4)c3s2)CC1 [Pictilisib] (partner 1 µM)"
  class label: "True"
- molecule: "C=C1C(=O)O[C@@H](CCCCCCCC)[C@@H]1C(=O)O [C-75] + Cc1cc(Nc2cc(N3CCN(C)CC3)nc(Sc3ccc(NC(=O)C4CC4)cc3)n2)n[nH]1 [Tozasertib] (partner 0.1 µM)"
  class label: "False"

Now look at this entry.
Is 0.5 strictly greater than the molecule's reported relative viability? molecule: Oc1nc(-c2ccc(C(F)(F)F)cc2)nc2c1CSCC2 [XAV939] + C[C@@H](Oc1cc(-c2cnn(C3CCNCC3)c2)cnc1N)c1c(Cl)ccc(F)c1Cl [Crizotinib] (partner 1 µM)
False
